Listed here: compounds with reported AC50 for Growth hormone secretagogue receptor type 1 (Homo sapiens).

Please review the entries below; each comes with its answer.
CC(S)C(=O)NCC(=O)O (centres undefined) | > 30 µM
C[C@@H](NCCCc1cccc(C(F)(F)F)c1)c1cccc2ccccc12 | 10 µM
C=C1/C(=C\C=C2/CCC[C@]3(C)[C@@H]([C@H](C)/C=C/[C@@H](O)C4CC4)CC[C@@H]23)C[C@@H](O)C[C@@H]1O | > 30 µM
O=C1CCc2cc(OCCCCc3nnnn3C3CCCCC3)ccc2N1 | > 30 µM
CCCN(CCC)C(=O)Cc1c(-c2ccc(Cl)cc2)nc2ccc(Cl)cn12 | > 30 µM
CCCC(CCC)C(N)=O [VALPROMIDE] | > 30 µM
CC(C)(C)C(=O)OCC(=O)[C@H]1CC[C@H]2[C@@H]3CCC4=CC(=O)CC[C@]4(C)[C@H]3CC[C@]12C [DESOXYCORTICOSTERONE PIVALATE] | > 10 µM
C[C@H](Cc1ccc(O)c(O)c1)[C@@H](C)Cc1ccc(O)c(O)c1 | > 10 µM

**Q:** What AC50 appears in the records for this compound with Growth hormone secretagogue receptor type 1 (Homo sapiens)? CC1OC2(CS1)CN1CCC2CC1 (centres undefined)
Sequence (Q92847 whole entry): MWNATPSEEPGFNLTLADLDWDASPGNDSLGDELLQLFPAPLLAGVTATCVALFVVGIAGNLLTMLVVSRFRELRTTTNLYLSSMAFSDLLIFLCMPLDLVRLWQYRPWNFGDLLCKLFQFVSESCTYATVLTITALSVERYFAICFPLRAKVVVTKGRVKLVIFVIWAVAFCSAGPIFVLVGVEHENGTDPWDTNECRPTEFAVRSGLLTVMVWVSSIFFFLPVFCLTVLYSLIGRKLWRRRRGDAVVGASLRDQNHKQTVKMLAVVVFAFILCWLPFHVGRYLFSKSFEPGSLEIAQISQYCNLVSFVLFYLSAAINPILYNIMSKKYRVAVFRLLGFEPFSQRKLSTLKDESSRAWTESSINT
**A:** > 10 µM

**Q:** What AC50 appears in the records for this compound with Growth hormone secretagogue receptor type 1 (Homo sapiens)? CCCN[C@H]1CCc2nc(N)sc2C1 [PRAMIPEXOLE]
**A:** > 30 µM

**Q:** What AC50 appears in the records for this compound with Growth hormone secretagogue receptor type 1 (Homo sapiens)? NC1CCN(c2nc3c(cc2F)c(=O)c(C(=O)O)cn3-c2ccc(F)cc2F)C1 (centres undefined)
**A:** > 30 µM

**Q:** What AC50 appears in the records for this compound with Growth hormone secretagogue receptor type 1 (Homo sapiens)? CC(C)Cc1ccc(C(C)C(=O)O)cc1 (centres undefined)
**A:** > 30 µM

**Q:** What AC50 appears in the records for this compound with Growth hormone secretagogue receptor type 1 (Homo sapiens)? CCN(CC)C(=O)Nc1ccc(OCC(O)CNC(C)(C)C)c(C(C)=O)c1 (centres undefined)
**A:** > 30 µM

**Q:** What AC50 appears in the records for this compound with Growth hormone secretagogue receptor type 1 (Homo sapiens)? C[C@H](CCC(=O)O)[C@H]1CC[C@H]2[C@@H]3[C@@H](O)C[C@@H]4C[C@H](O)CC[C@]4(C)[C@H]3CC[C@]12C
**A:** > 30 µM

**Q:** What AC50 appears in the records for this compound with Growth hormone secretagogue receptor type 1 (Homo sapiens)? NC(=O)CN1CCCC1=O
**A:** > 30 µM

**Q:** What AC50 appears in the records for this compound with Growth hormone secretagogue receptor type 1 (Homo sapiens)? C#C[C@]1(OC(C)=O)CC[C@H]2[C@@H]3CCC4=C/C(=N/O)CC[C@@H]4[C@H]3CC[C@@]21CC [NORGESTIMATE]
**A:** > 30 µM

**Q:** What AC50 appears in the records for this compound with Growth hormone secretagogue receptor type 1 (Homo sapiens)? OCc1cc(C(O)CNCCCCCCOCCCCc2ccccc2)ccc1O (centres undefined)
**A:** > 30 µM

**Q:** What AC50 appears in the records for this compound with Growth hormone secretagogue receptor type 1 (Homo sapiens)? Cc1cccc(N2CC(CO)OC2=O)c1 (centres undefined)
**A:** > 30 µM
